FYI, the data here is from patent US20190106460A1.

molecular target: β-TrCP1/Skp1 (Homo sapiens); experiment: βTrCP ubiquitination assay (Ub assay); type: biochemical; settings: 100 μM compound
Sequence (Q9Y297 whole entry, one chain of several): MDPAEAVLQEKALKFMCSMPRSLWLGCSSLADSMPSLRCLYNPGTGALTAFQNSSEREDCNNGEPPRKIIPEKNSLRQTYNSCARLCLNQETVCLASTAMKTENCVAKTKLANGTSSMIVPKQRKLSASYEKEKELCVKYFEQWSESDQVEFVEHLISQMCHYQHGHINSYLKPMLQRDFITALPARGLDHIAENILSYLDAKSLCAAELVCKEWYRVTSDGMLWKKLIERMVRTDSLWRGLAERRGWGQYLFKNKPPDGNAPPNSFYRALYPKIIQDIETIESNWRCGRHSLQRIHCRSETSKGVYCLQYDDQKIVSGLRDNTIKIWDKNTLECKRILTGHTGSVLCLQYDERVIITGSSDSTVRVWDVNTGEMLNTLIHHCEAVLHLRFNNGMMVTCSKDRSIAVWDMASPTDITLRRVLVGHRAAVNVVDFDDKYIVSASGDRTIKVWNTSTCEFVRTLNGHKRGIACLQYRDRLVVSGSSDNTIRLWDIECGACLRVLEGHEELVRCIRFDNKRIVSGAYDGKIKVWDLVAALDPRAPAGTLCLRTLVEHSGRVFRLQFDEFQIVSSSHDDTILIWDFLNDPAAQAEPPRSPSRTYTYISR
Starred links: 1 amine or outer side, 2 acyl side, 3 side chain; linkers in the order of their positions; H or OH if unused. Non-standard residues stand in square brackets, D forms with d. Residues, ends and D or L forms follow the SMILES beside them. *: point of attachment. Phe(4-NO2) = N[C@@H](Cc1ccc([N+](=O)[O-])cc1)C(=O)O; Phe(3-F) = N[C@@H](Cc1cccc(F)c1)C(=O)O; Suc = O=C(CCC(=O)[*:2])[*:1]; Moc = COC(=O)*
Measured parameter: Ub Assay 100 μM

| Compound | Study target | Obs value |
| --- | --- | --- |
| NC(=O)[C@H](CCC(=O)O)NC(=O)[C@H](Cc1ccc([N+](=O)[O-])cc1)NC(=O)[C@H](Cc1ccc(O)cc1)NC(=O)CNC(=O)[C@H](CCC(=O)O)NC(=O)CCC(=O)O [UBP013, Suc-EGYF(4NO2)E-NH2] (Suc-EGY[Phe(4-NO2)]E-NH2) | β-TrCP1/Skp1 (Homo sapiens) | inhibits |
| COC(=O)N[C@H](CC(=O)O)C(=O)N[C@@H](CCC(=O)O)C(=O)NCC(=O)N[C@@H](Cc1cccc(F)c1)C(=O)N[C@@H](Cc1c[nH]c2ccccc12)C(=O)N[C@@H](CCC(=O)O)C(N)=O [UBP020, MeO(CO)-dEGF(3F)WE-NH2] (Moc-[dD]EG[Phe(3-F)]WE-NH2) | β-TrCP1/Skp1 (Homo sapiens) | inhibits |

###

target: βTrCP/Skp1 (Homo sapiens); experiment: Surface plasmon resonance (SPR), Biacore T200; type: binding; details: apparent KD averaged over both surfaces
Sequence (Q9Y297 whole entry, one chain of several): as the sequence (Q9Y297 whole entry, one chain of several) above
Starred links: 1 amine or outer side, 2 acyl side, 3 side chain; linkers in the order of their positions; H or OH if unused. Non-standard residues stand in square brackets, D forms with d. Residues, ends and D or L forms follow the SMILES beside them. Phe(4-NO2) = N[C@@H](Cc1ccc([N+](=O)[O-])cc1)C(=O)O; Phe(3-F) = N[C@@H](Cc1cccc(F)c1)C(=O)O; 1Nal = N[C@@H](Cc1cccc2ccccc12)C(=O)O; Maleoyl = O=C(/C=C\C(=O)[*:2])[*:1]; Suc = O=C(CCC(=O)[*:2])[*:1]
I'd appreciate it if you could supply Kd values for the items below.
Phrase the answer as number then unit, nothing more needed.

Short answer for NC(=O)[C@H](CCC(=O)O)NC(=O)[C@H](Cc1c[nH]cn1)NC(=O)[C@H](Cc1cccc(F)c1)NC(=O)CNC(=O)[C@H](CCC(=O)O)NC(=O)CCC(=O)O [UBP015, Suc-EGF(3F)HE-NH2] (Suc-EG[Phe(3-F)]HE-NH2) : Kd was 0.4 µM

The recorded Kd for NC(=O)[C@H](CCC(=O)O)NC(=O)[C@H](Cc1cccc2ccccc12)NC(=O)[C@H](Cc1ccc([N+](=O)[O-])cc1)NC(=O)CNC(=O)[C@H](CCC(=O)O)NC(=O)CCC(=O)O [UBP011, Suc-EGF(4NO2)1NalE-NH2] (Suc-EG[Phe(4-NO2)][1Nal]E-NH2) is 1.96 µM

// Kd value for `NC(=O)CC[C@H](NC(=O)CCC(=O)O)C(=O)NCC(=O)N[C@@H](Cc1cccc(F)c1)C(=O)N[C@@H](Cc1ccc([N+](=O)[O-])cc1)C(=O)N[C@@H](CCC(=O)O)C(N)=O` : 5.49 µM

Item: NC(=O)[C@H](CCC(=O)O)NC(=O)[C@H](Cc1ccc([N+](=O)[O-])cc1)NC(=O)[C@H](Cc1cccc(F)c1)NC(=O)CNC(=O)[C@H](CCC(=O)O)NC(=O)/C=C\C(=O)O [UBP008, Mal-EGF(3F)F(4NO2)E-NH2] (Maleoyl-EG[Phe(3-F)][Phe(4-NO2)]E-NH2) | Kd: 1.46 µM

###

Please provide measured inhibition at 10 µM for the entries that follow.
molecular target: FBW7/Skp1 (Homo sapiens, UniProt Q969H0); experiment: Selectivity assay vs other E3s: Fbw7; assay type: biochemical; details: read-out: % Inhibition Fbw7 @ 10 μM
Sequence (Q969H0 whole entry, species assumed, one chain of several): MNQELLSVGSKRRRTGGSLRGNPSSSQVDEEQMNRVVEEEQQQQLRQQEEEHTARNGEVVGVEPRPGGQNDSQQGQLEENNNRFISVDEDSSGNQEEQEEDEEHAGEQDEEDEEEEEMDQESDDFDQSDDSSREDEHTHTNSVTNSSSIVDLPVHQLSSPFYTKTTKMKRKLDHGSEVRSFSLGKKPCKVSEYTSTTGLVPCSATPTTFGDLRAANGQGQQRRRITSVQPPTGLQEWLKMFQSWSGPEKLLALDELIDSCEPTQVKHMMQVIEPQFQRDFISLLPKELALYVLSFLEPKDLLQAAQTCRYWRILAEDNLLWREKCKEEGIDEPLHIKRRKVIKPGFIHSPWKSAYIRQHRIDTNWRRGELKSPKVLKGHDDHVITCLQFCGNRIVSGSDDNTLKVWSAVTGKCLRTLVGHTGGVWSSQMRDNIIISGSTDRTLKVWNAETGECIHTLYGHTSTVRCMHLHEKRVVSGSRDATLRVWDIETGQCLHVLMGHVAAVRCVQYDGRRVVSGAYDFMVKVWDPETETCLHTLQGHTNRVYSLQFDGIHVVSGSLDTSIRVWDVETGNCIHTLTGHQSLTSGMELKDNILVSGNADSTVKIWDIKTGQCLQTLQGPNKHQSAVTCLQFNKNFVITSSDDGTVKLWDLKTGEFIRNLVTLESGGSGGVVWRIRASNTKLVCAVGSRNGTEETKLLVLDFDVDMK
Starred links: 1 amine or outer side, 2 acyl side, 3 side chain; linkers in the order of their positions; H or OH if unused. Non-standard residues stand in square brackets, D forms with d. Residues, ends and D or L forms follow the SMILES beside them. *: point of attachment. 2Naphthylsulfonyl = O=S(=O)(c1ccc2ccccc2c1)*; Phe(3-F) = N[C@@H](Cc1cccc(F)c1)C(=O)O; 1Nal = N[C@@H](Cc1cccc2ccccc12)C(=O)O; X1 = CCCCOc1ccc(S(=O)(=O)*)cc1; Suc = O=C(CCC(=O)[*:2])[*:1]; Tos = Cc1ccc(S(=O)(=O)*)cc1
Expressed in %, but write only the number.

Form: compound = NC(=O)[C@H](CCC(=O)O)NC(=O)[C@H](Cc1c[nH]c2ccccc12)NC(=O)[C@H](Cc1cccc(F)c1)NC(=O)CNC(=O)[C@H](CCC(=O)O)NC(=O)[C@@H](CC(=O)O)NS(=O)(=O)c1ccc2ccccc2c1 [UBP031, 2-NaphthylSO2-dEGF(3F)WE-NH2] (2Naphthylsulfonyl-[dD]EG[Phe(3-F)]WE-NH2) ; inhibition at 10 µM = 10

Record NC(=O)[C@H](CCC(=O)O)NC(=O)[C@H](Cc1c[nH]cn1)NC(=O)[C@H](Cc1cccc(F)c1)NC(=O)CNC(=O)[C@H](CCC(=O)O)NC(=O)CCC(=O)O [UBP015, Suc-EGF(3F)HE-NH2] (Suc-EG[Phe(3-F)]HE-NH2) , field inhibition at 10 µM: 12

The compound CCCCOc1ccc(S(=O)(=O)N[C@H](CC(=O)O)C(=O)N[C@@H](CCC(=O)O)C(=O)NCC(=O)N[C@@H](Cc2cccc(F)c2)C(=O)N[C@@H](Cc2c[nH]c3ccccc23)C(=O)N[C@@H](CCC(=O)O)C(N)=O)cc1 [UBP030, 4-(BuO)-PhSO2-dEGF(3F)WE-NH2] (X1-[dD]EG[Phe(3-F)]WE-NH2) showed inhibition at 10 µM equal to 7

Form: compound = NC(=O)[C@H](CCC(=O)O)NC(=O)[C@H](Cc1cccc2ccccc12)NC(=O)[C@H](Cc1ccc(O)cc1)NC(=O)CNC(=O)[C@H](CCC(=O)O)NC(=O)CCC(=O)O [UBP009, Suc-EGY1NalE-NH2] (Suc-EGY[1Nal]E-NH2) ; inhibition at 10 µM = 1

Record summary for Cc1ccc(S(=O)(=O)N[C@@H](CC(=O)O)C(=O)N[C@@H](CCC(=O)O)C(=O)NCC(=O)N[C@@H](Cc2cccc(F)c2)C(=O)N[C@@H](Cc2c[nH]c3ccccc23)C(=O)N[C@@H](CCC(=O)O)C(N)=O)cc1 [Ts-DEGF(3F)WE-NH2] (Tos-DEG[Phe(3-F)]WE-NH2) : reported inhibition at 10 µM = 0

Per the records, this compound ( Cc1ccc(S(=O)(=O)N[C@H](CC(=O)O)C(=O)N[C@@H](CC(=O)O)C(=O)NCC(=O)N[C@@H](Cc2cccc(F)c2)C(=O)N[C@@H](Cc2c[nH]c3ccccc23)C(=O)N[C@@H](CC(=O)O)C(N)=O)cc1 [UBP028, Ts-dDGF(3F)WD-NH2] (Tos-[dD]DG[Phe(3-F)]WD-NH2) ) has inhibition at 10 µM equal to 4

Entry CC(=O)N[C@H](CC(=O)O)C(=O)N[C@@H](CCC(=O)O)C(=O)NCC(=O)N[C@@H](Cc1cccc(F)c1)C(=O)N[C@@H](Cc1cccc2ccccc12)C(=O)N[C@@H](CCC(=O)O)C(N)=O [UBP016, Ac-dEGF(3F)1NalE-NH2] (Ac-[dD]EG[Phe(3-F)][1Nal]E-NH2) — recorded inhibition at 10 µM = 3

###

Provide the reported inhibition at 10 µM of each item.
target: Skp2 (Homo sapiens); assay: Selectivity assay vs other E3s: Skp2; type: biochemical; conditions: read-out: % Inhibition Skp2 @ 10 μM
Sequence (Q13309 whole entry, species assumed): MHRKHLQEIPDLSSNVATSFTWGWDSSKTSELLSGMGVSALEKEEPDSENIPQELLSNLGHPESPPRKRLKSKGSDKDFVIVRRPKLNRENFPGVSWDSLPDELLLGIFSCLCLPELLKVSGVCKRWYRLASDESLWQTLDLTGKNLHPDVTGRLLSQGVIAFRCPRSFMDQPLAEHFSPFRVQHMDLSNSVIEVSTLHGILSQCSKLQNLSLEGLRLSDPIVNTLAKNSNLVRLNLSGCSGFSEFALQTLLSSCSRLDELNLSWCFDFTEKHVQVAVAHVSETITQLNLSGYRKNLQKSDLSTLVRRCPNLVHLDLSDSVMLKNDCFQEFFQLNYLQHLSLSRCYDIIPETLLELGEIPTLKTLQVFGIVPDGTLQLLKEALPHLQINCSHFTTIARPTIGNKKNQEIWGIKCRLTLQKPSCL
Sequence (P63208 whole entry partner, species assumed): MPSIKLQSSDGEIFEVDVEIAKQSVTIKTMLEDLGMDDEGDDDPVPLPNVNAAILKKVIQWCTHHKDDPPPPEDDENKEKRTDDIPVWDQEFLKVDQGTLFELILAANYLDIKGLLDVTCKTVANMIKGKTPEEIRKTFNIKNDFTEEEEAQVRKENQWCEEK
Sequence (Q13616 whole entry partner, species assumed): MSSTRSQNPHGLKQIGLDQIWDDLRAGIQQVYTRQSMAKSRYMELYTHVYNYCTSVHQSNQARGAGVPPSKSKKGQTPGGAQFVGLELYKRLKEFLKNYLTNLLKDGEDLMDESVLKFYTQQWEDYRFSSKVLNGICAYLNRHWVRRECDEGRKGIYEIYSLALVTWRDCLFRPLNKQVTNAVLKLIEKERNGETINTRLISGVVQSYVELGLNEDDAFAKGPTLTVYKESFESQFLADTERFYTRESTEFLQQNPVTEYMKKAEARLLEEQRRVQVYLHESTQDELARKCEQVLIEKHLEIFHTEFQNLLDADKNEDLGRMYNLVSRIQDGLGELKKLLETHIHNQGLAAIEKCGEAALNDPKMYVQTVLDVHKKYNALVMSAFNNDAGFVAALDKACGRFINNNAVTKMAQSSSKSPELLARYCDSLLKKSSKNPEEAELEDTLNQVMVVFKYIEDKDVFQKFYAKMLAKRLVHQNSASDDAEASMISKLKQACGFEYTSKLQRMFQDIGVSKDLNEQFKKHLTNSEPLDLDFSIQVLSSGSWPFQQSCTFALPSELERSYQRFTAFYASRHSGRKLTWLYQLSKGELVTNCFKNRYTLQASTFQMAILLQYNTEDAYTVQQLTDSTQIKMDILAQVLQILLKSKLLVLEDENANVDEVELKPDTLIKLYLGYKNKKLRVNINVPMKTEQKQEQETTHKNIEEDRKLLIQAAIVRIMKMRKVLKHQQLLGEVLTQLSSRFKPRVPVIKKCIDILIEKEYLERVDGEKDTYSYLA
Sequence (P62877 whole entry partner, species assumed): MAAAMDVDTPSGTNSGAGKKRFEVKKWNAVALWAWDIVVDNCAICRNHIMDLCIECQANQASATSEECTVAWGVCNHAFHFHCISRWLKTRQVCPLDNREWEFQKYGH
Starred links: 1 amine or outer side, 2 acyl side, 3 side chain; linkers in the order of their positions; H or OH if unused. Non-standard residues stand in square brackets, D forms with d. Residues, ends and D or L forms follow the SMILES beside them. *: point of attachment. Phe(4-NO2) = N[C@@H](Cc1ccc([N+](=O)[O-])cc1)C(=O)O; Phe(3-Cl) = N[C@@H](Cc1cccc(Cl)c1)C(=O)O; Phe(3-F) = N[C@@H](Cc1cccc(F)c1)C(=O)O; NMeE = CN[C@@H](CCC(=O)O)C(=O)O; Suc = O=C(CCC(=O)[*:2])[*:1]; Tos = Cc1ccc(S(=O)(=O)*)cc1
Numeric only. Scale: %

Recorded inhibition at 10 µM (compound NC(=O)[C@H](CCC(=O)O)NC(=O)[C@H](Cc1ccc([N+](=O)[O-])cc1)NC(=O)[C@H](Cc1cccc(F)c1)NC(=O)CNC(=O)[C@H](CCC(=O)O)NC(=O)CCC(=O)O [UBP004, Suc-EGF(3F)F(4NO2)E-NH2] (Suc-EG[Phe(3-F)][Phe(4-NO2)]E-NH2) ): 0

Summary for this compound, Cc1ccc(S(=O)(=O)N[C@H](CC(=O)O)C(=O)N[C@@H](CCC(=O)O)C(=O)NCC(=O)N[C@@H](Cc2cccc(F)c2)C(=O)N[C@@H](Cc2c[nH]c3ccccc23)C(=O)N(C)[C@@H](CCC(=O)O)C(N)=O)cc1 [UBP032, Ts-dEGF(3F)WE(Me)-NH2] (Tos-[dD]EG[Phe(3-F)]W[NMeE]-NH2) : inhibition at 10 µM is 0

Field inhibition at 10 µM (entry `NC(=O)CC[C@H](NC(=O)CCC(=O)O)C(=O)NCC(=O)N[C@@H](Cc1cccc(F)c1)C(=O)N[C@@H](Cc1ccc([N+](=O)[O-])cc1)C(=O)N[C@@H](CCC(=O)O)C(N)=O` ) reads 0

Reported inhibition at 10 µM of Cc1ccc(S(=O)(=O)N[C@H](CC(=O)O)C(=O)N[C@@H](CCC(=O)O)C(=O)NCC(=O)N[C@@H](Cc2cccc(Cl)c2)C(=O)N[C@@H](Cc2c[nH]c3ccccc23)C(=O)N[C@@H](CCC(=O)O)C(N)=O)cc1 [UBP034, Ts-dEGF(3Cl)WE-NH2] (Tos-[dD]EG[Phe(3-Cl)]WE-NH2) : 0

Entry NC(=O)[C@H](CCC(=O)O)NC(=O)[C@H](Cc1c[nH]c2ccccc12)NC(=O)[C@H](Cc1cccc(F)c1)NC(=O)CNC(=O)[C@H](CCC(=O)O)NC(=O)CCC(=O)O [UBP014, Suc-EGF(3F)WE-NH2] (Suc-EG[Phe(3-F)]WE-NH2) ; inhibition at 10 µM = 5

# compound NC(=O)[C@H](CCC(=O)O)NC(=O)[C@H](Cc1ccccc1)NC(=O)[C@H](Cc1ccc(O)cc1)NC(=O)CNC(=O)[C@H](CCC(=O)O)NC(=O)CCC(=O)O [UBP007, Suc-EGYFE-NH2] (Suc-EGYFE-NH2) ; its inhibition at 10 µM = 11
